# tgt: UniProtKB P21675
# Sequence (P21675 1519-1628 limits assumed): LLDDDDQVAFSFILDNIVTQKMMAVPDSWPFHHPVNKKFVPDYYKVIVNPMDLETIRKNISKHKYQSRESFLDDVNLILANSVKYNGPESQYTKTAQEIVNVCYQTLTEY
# runDescription: BROMOscan ligand-binding assay
# measurementConditions: read-out: KD (BROMOscan); sheet prints no unit (nM)
measureName: Kd
Give the figure together with its unit, number first.

### Prompt Which measured Kd belongs to COc1cc(C#N)ccc1S(=O)(=O)Nc1ccc2c(c1)cc(C)c(=O)n2C , tested on UniProtKB P21675?
### Response 4900 nM

====

# tgt: TRIM33(PHD,BRD) (Homo sapiens)
# Sequence (Q9UPN9 882-1087 limits assumed): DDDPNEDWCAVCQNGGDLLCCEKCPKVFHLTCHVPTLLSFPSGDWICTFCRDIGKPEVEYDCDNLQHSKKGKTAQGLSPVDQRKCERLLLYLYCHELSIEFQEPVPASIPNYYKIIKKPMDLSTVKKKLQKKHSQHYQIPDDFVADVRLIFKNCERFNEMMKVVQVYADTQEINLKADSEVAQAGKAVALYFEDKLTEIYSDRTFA
# runDescription: BROMOscan ligand-binding assay
# measurementConditions: BROMOscan, TRIM33(PHD,Bromo.)
pKd: −log10 of the molar value.
measureName: pKd

{"compound": "O=C(C=CN1[C@H]2CC[C@@H]1c1ncnc(NC3CC3)c1C2)c1ccccc1O [PFI-3 D1]", "result": "< 4.52"}

Consider the additional compound presented here.
### Prompt # get_value(readout='pKd', item= Cc1cc(=O)n(C)c2cc(N3C(=O)CC[C@H](NS(=O)(=O)CC(C)C)[C@H]3c3ccc(Cl)cc3)ccc12 )
### Response < 4.30
